Overview of recorded melting point for various compounds

Input line: State the recorded melting point for this entry: "CC(=O)N(Cc1cccs1)C1(c2ccc(Cl)cc2)CCC1"
Output line: 105 to 108 °C

Input line: Report melting point for "CC(C)(C)OC(=O)N[C@@H](Cc1ccc(-c2ccccc2)cc1)C(=O)OCc1ccccc1" please.
Output line: 98.3 to 100 °C

Input line: # melting point lookup, item "CC1(C)CCC(C)(C)c2cc(-c3cc(-c4ccc(C(N)=O)cc4)ccc3-c3ccccc3)ccc21"
Output line: 220 °C

Input line: Item under review: "O=C(NCc1ccc(F)cc1-n1cncn1)c1nc2n(c(=O)c1O)CCN2CCO" . Reported melting point?
Output line: 220 to 222 °C

Input line: Entry "COC(=O)c1cc(I)c(C(F)(F)F)cc1N" has what melting point?
Output line: 101 to 103 °C

Input line: Record request: melting point value, item "CCCOc1c(Cl)cc(Cl)c2c(=O)c3ccccc3sc12"
Output line: 104 to 105 °C

Input line: Requested read-out: melting point. Entry: "CC(=O)Nc1cc(F)ccc1C(=O)NCCN1CCC(n2c(=O)[nH]c3ccccc32)CC1"
Output line: 210 °C

Input line: Name the recorded melting point for C=CCNC(=S)C(OC)c1ccccn1 (configuration not stated) .
Output line: 59.5 to 60 °C

Input line: # query: melting point of entry "CC(C)(C)OC(=O)N1CCC(C(=O)Nc2ccccc2Oc2ccc(OC(F)(F)F)cc2)CC1"
Output line: 45 to 48 °C

Input line: Can you share its melting point? I mean this compound: COc1ccccc1C1(O)C(O)CC(c2ccccc2)(c2ccccc2)C2CN(C(=O)Cc3ccccc3O)CC21 (configuration not stated)
Output line: 188 to 190 °C

Input line: Tell me the measured melting point of "CC(C)C[C@H](CC(=O)OC(C)(C)C)C(=O)N1C(=O)OC[C@@H]1C(C)C" , please.
Output line: 143 to 144 °C

Input line: Param item = "O=C(Oc1ccc([N+](=O)[O-])cc1)[C@@H]1CCCN1C(=O)OCc1ccccc1" ; retrieve measured melting point.
Output line: 94 to 96 °C

Input line: Look up melting point for this compound: "CN1CCCC1=NC(=O)Nc1ccc(C(F)(F)F)cc1"
Output line: 128 to 131 °C

====

# reported melting point; entries follow

Input line: I would be grateful if you could share the reported melting point for "CCOC(=O)COc1ccc(C(=O)Nc2ccccc2Sc2ccc(-c3nnn[nH]3)cc2)cc1" .
Output line: 148 to 149 °C

Input line: Consider the molecule shown here: CC(C(=O)N(C)C)n1ccc(-c2ccc(Cl)cc2)n1 (stereo not given) What is its recorded melting point?
Output line: 95 to 99 °C

Input line: Quick check: melting point of "Cc1oc(-c2ccco2)nc1COc1ccc(COc2ncccc2CC(=O)O)cc1" ?
Output line: 151 to 152 °C

Input line: What value of measured melting point is listed for COc1ccc(C[C@H](N)[C@H](O)c2ccc(F)cc2)cc1 (racemic) ?
Output line: 78 to 79 °C

Input line: I'd like to know its melting point. The molecule in question is "Nc1cc(C(=O)NC2CCC2)n[nH]1"
Output line: 147 °C

====

Catalogue of melting point values

Take a look at these entries with their results.
Compound	Endpoint result
COc1ccc2cc(C(=O)O)ccc2n1	220 to 222 °C
COC(=O)[C@H](Cc1ccc(OCc2ccccc2)cc1)NC(=O)C(CSC(C)=O)Cc1ccccc1 (stereo partly specified)	92 to 93 °C
CS(=O)(=O)CC(=O)NCCn1ccc2ncnc(Nc3ccc(Oc4cccc(Cl)c4)c(Cl)c3)c21	206 to 207 °C
CC(C)CNCc1cccc(OCCCNc2nc(N)nn2C)c1	89 to 90 °C
Cc1cccc(N2CCN(CCCOc3ccc4ccc(=O)oc4c3)CC2)c1C	89 °C
CN(C)CCNCCn1nc2c3c(c(NCCNCCO)ccc31)C(=O)c1c(O)ccc(O)c1-2	148 to 153 °C
COCCOC(=O)c1cncn1C1CCCc2ccccc21 (stereo unspecified)	66.8 °C
COc1cc2c(Nc3cccc(Cl)c3F)ncnc2cc1OC1CCN(C(=O)[C@@H](O)C(C)(C)C)CC1	205 to 206 °C
C=C(C)C(=O)OCCOc1ccc(OCCOC(=O)c2ccc(O)c(Cl)c2)cc1	105 to 106 °C
CC1(C)CC(O)c2cc(N)ccc21 (stereo unspecified)	118 °C

Input line: Which measured melting point value corresponds to O=C(O)c1ccc(-c2ccc(S(=O)(=O)N3CCCC(CO)C3)cc2)[nH]c1=O (stereo unspecified) ?
Output line: 300 to 304 °C

Input line: So what's the measured melting point for this one? "O=C(O)c1cc(-c2ccc(-c3ccc(C(F)(F)F)cc3)o2)ccc1O"
Output line: 272 to 273 °C

Input line: Look at this compound and give its reported melting point. "CC(C)(C)OC(=O)NN(C[C@H](O)[C@H](Cc1ccccc1)NC(=O)OCc1ccccc1)C1CCCCC1"
Output line: 142 to 143 °C

Input line: Can you share its melting point? I mean this compound: "O=[N+]([O-])c1cnccc1NCc1ccccc1F"
Output line: 108 to 109 °C

Input line: So what does the record say about melting point for "CSCCSc1nc(C(C)(C)C)n[nH]1" ?
Output line: 114 to 116 °C

Input line: // lookup melting point for Cc1nc(CC2OC(CO)C(O)C2O)n2nc(Cl)ccc12 (stereo unspecified)
Output line: 171 to 174 °C

Input line: Returns the measured melting point for the input compound. Input: "O=C1NCCN1c1ccc(S(=O)(=O)Oc2ccc3[nH]ccc3c2)cc1"
Output line: 226 to 227 °C
